TARGET_ENTITY: Ste12 (UniProt P13574)
Sequence (P13574 whole entry): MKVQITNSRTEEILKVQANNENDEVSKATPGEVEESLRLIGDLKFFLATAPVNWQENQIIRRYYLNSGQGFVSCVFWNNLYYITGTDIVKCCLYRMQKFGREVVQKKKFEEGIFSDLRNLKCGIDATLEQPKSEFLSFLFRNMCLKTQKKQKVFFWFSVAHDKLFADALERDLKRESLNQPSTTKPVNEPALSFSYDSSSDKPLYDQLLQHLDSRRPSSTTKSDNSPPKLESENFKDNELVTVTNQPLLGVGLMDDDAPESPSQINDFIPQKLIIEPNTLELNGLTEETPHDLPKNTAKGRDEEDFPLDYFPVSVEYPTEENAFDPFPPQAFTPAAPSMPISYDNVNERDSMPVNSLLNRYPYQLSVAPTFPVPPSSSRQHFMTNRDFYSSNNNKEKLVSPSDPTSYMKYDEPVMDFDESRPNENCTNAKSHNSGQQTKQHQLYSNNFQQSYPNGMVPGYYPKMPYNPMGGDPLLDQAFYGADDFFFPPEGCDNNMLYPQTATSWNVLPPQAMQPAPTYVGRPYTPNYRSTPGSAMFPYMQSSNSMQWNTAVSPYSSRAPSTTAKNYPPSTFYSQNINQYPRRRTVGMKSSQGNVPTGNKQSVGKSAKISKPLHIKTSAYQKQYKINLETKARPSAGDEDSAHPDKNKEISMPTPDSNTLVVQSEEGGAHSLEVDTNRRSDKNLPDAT
METHOD_DESCRIPTION: PBM E-score (8-mer binding enrichment) (E-score (-0.5 to 0.5)); higher = stronger / more preferred TF binding
MEASUREMENT_CONDITIONS: protein concentration: 200 nM; construct: GST-DNA-binding domain
The full ranking holds about 33,000 sequences; the median of “E-score (-0.5 to 0.5)” is about -0.01, and the highest 2% start at about 0.26. The list comes from a sample in which the highest values are over-represented; it also holds close analogues and randomly drawn sequences.
METRIC: PBM E-score
# output: bare number, no unit

[
  {
    "ORDERED_RESIDUES": "ACCCTCAC",
    "PBM E-score": -0.029
  },
  {
    "ORDERED_RESIDUES": "TTATCGAA",
    "PBM E-score": 0.196
  },
  {
    "ORDERED_RESIDUES": "GCCCACAC",
    "PBM E-score": 0.0974
  },
  {
    "ORDERED_RESIDUES": "ATATGAAC",
    "PBM E-score": 0.154
  },
  {
    "ORDERED_RESIDUES": "AAATCCGG",
    "PBM E-score": 0.0201
  }
]

Noted PBM E-score for `GTTCAGTA` , tested on Ste12 (UniProt P13574): -0.0836

Measured PBM E-score (Ste12 (UniProt P13574)), entry `GAGTTTGA` : 0.0997

# value of PBM E-score, Ste12 (UniProt P13574), item `CCGAAACA` = 0.376

Tested system Ste12 (UniProt P13574); PBM E-score recorded for `CAATCCGG` was 0.273

Reported Ste12 (UniProt P13574) PBM E-score for item `GTGGGGTA` was 0.302

Measured PBM E-score (Ste12 (UniProt P13574)), entry `GCGGTCAA` : -0.0277

Reported PBM E-score (Ste12 (UniProt P13574)) for entry `AGAACATC` is -0.0976

Log: Ste12 (UniProt P13574), sequence `GTATGAAC` , PBM E-score = -0.018

Tested system Ste12 (UniProt P13574); PBM E-score recorded for `GTATGAAA` was 0.338

Summary: `CGGGAGTC` , Ste12 (UniProt P13574), PBM E-score = -0.12

Reported Ste12 (UniProt P13574) PBM E-score for item `CTCAAAAA` was 0.178

PBM E-score of `ACAACCAA` , assay on Ste12 (UniProt P13574), is 0.0252

The reported Ste12 (UniProt P13574) PBM E-score of `CGTCGCCC` is -0.121

The sequence `CTCTTTAA` , tested on Ste12 (UniProt P13574), showed PBM E-score of -0.122

====

TARGET_ENTITY: Ste12 (UniProt P13574)
METHOD_DESCRIPTION: PBM E-score (8-mer binding enrichment) (E-score (-0.5 to 0.5)); higher = stronger / more preferred TF binding
MEASUREMENT_CONDITIONS: protein concentration: 200 nM; construct: GST-DNA-binding domain
In all, about 33,000 sequences were measured (“E-score (-0.5 to 0.5)”: median about -0.01, highest 2% from about 0.26 on). Shown is part of a subset that was picked to be rich in the highest values.
// label = true if PBM E-score is not less than 0.1, otherwise false

See these solved cases before continuing.
[
  {
    "ORDERED_RESIDUES": "TGATGCAA",
    "CLASS": "true"
  },
  {
    "ORDERED_RESIDUES": "CATTTAAC",
    "CLASS": "true"
  }
]

Q. Could you verify whether the entry `CAAAGTAA` shows PBM E-score of no less than 0.1?
A. true

Q. State whether the measured PBM E-score reaches 0.1, counting equality as reaching it, for `TATTTTAA`
A. true

Q. Answer whether PBM E-score of `AAAAGTGT` is greater than or equal to 0.1.
A. false

Q. PBM E-score >= 0.1 for `GATTTCAA` ?
A. true

Q. Threshold query (PBM E-score >= 0.1) on `CTTTAGCC`
A. false

Q. Is PBM E-score for `TAAGCCAA` at or above 0.1?
A. false

Q. Answer whether PBM E-score of `CAACAGCC` is greater than or equal to 0.1.
A. false

Q. For this sequence, is measured PBM E-score 0.1 or higher? `GGTTTCAA`
A. true

Q. Decide: PBM E-score of `GGCGCAAA` >= 0.1?
A. true

Q. Answer whether PBM E-score of `CAGCCATC` is greater than or equal to 0.1.
A. false

Q. Could you please find out whether `GAGCTGGC` has PBM E-score that meets 0.1 or exceeds it?
A. false

Q. Form field: PBM E-score at least 0.1? Entry: `CGGCGAAC`
A. false

Q. Determine whether this sequence has PBM E-score no lower than 0.1: `TAAGGCAA`
A. false

Q. Hello, I need to know if `CATTTAAA` has measured PBM E-score not below 0.1. Thanks!
A. true
